# MEASURED TARGET: VHL co-expressed with Elongins B and C (Homo sapiens (Human))
# Sequence (P40337 whole entry, looked up): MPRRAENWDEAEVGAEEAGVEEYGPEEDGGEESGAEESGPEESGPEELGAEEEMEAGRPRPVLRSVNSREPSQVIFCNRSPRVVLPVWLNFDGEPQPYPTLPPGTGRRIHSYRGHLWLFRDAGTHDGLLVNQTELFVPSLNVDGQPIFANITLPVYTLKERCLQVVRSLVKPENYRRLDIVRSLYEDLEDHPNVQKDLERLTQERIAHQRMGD
# Sequence (Q15370 whole entry partner, looked up): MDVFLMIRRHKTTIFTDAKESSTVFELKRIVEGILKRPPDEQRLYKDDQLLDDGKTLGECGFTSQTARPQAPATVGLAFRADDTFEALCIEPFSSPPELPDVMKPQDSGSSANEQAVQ
# Sequence (Q15369 whole entry partner, looked up): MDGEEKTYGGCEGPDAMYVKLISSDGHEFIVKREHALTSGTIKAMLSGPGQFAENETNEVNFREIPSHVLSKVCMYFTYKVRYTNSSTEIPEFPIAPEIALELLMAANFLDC
# METHOD: Surface Plasmon Resonance Assay
# Type: binding
# CONDITION NOTES: SPR measured VHL affinity; geometric mean where more than one measurement
QUANTITY MEASURED: Kd

The cases that follow already have their Kd on record.
>>> result("Cc1ncsc1-c1ccc([C@]2(C)NC(C3C[C@@H](O)CN3C(=O)[C@H]3CCCN3S(C)(=O)=O)=NC2=O)cc1 (single isomer, unassigned) [Example 120.2]")
"≥ 150 µM"
>>> result("Cc1cc([C@@H](C(=O)N2C[C@H](O)C[C@H]2C2=NOC(c3ccc(Br)cc3)(C(F)(F)F)N2)C(C)C)on1 (single isomer, unassigned) [Example 133.1]")
"≥ 150 µM"
>>> result("Cc1cc(C(C(=O)N2C[C@H](O)CC2C2=NC(=O)C(C)(c3ccc(-c4cccc(=O)n4C)cc3)N2)C(C)C)on1 (single isomer, unassigned) [Example 108.4]")
"> 0.3 µM"
>>> result("Cc1cc([C@@H](C(=O)N2C[C@H](O)C[C@H]2C2=NOC3(CCc4ccccc43)N2)C(C)C)on1 (single isomer, unassigned) [Example 130.1]")
"83 µM"
>>> result("Cc1cc([C@H](C(=O)N2C[C@H](O)C[C@H]2C2=NO[C@](C)(c3ccc(Br)cc3)N2)C(C)C)on1 (mixture of isomers) [Example 113.4]")
"3.17 µM"

Give Kd for Cc1cc([C@@H](C(=O)N2C[C@H](O)C[C@H]2C2=NOC(c3ccc(Br)cc3)(C(F)(F)F)N2)C(C)C)on1 (single isomer, unassigned) [Example 133.2] tested on VHL co-expressed with Elongins B and C (Homo sapiens (Human)). ≥ 150 µM

Report Kd from VHL co-expressed with Elongins B and C (Homo sapiens (Human)) testing of Cc1cc([C@@H](C(=O)N2C[C@H](O)C[C@H]2C2=NOC(C)(c3ccccc3)N2)C(C)C)on1 (single isomer, unassigned) [Example 128.2] ≥ 150 µM

Output reported Kd of the molecule Cc1cc(C(C(=O)N2C[C@H](O)CC2C2=NC(=O)C(C)(C)N2)C(C)C)on1 (single isomer, unassigned) [Example 107.3] on VHL co-expressed with Elongins B and C (Homo sapiens (Human)). > 150 µM

====

# MEASURED TARGET: NanoLuc VHL fusion protein (Homo sapiens (Human), UniProt P40337)
# Sequence (P40337 whole entry, looked up, the tested form may be a part): as the sequence (P40337 whole entry, looked up) above
# Sequence (Q15370 whole entry partner, looked up, the tested form may be a part): as the sequence (Q15370 whole entry partner, looked up) above
# Sequence (Q15369 whole entry partner, looked up, the tested form may be a part): as the sequence (Q15369 whole entry partner, looked up) above
# METHOD: VHL HEK-293 BRET Assay (NanoBRET Target Engagement)
# Format: cell-based
# CONDITION NOTES: geometric mean where more than one measurement
QUANTITY MEASURED: IC50 (µM)

a = Cc1cc([C@@H](C(=O)N2C[C@H](O)C[C@H]2C2=NOC3(CCc4ccccc43)N2)C(C)C)on1 (single isomer, unassigned) [Example 130.1]
b = Cc1cc([C@H](C(=O)N2C[C@H](O)C[C@H]2C2=NOC(C)(c3ccc(-c4scnc4C)cc3)N2)C(C)C)on1 (single isomer, unassigned) [Example 129.4]
Thinking about recorded IC50 values, which is higher, a or b ? I would appreciate it if you answered with the label of your choice. a
(a: 100 µM, b: 0.239 µM)

====

# MEASURED TARGET: VHL co-expressed with Elongins B and C (Homo sapiens (Human))
# METHOD: Surface Plasmon Resonance Assay
# Format: binding
# CONDITION NOTES: SPR measured VHL affinity; geometric mean where more than one measurement
QUANTITY MEASURED: Kd

Some entries whose results are on file:
>>> result("Cc1cc(C(C(=O)N2C[C@H](O)CC2C2=NC(=O)C(C)(c3ccc(-c4cccnc4)cc3)N2)C(C)C)on1 (single isomer, unassigned) [Example 105.3]")
"> 150 µM"
>>> result("Cc1cc(C(C(=O)N2C[C@H](O)C[C@H]2C2=NN(c3ccccc3)C(C)(C)N2)C(C)C)on1 (single isomer, unassigned) [Example 135.1]")
"≥ 150 µM"
>>> result("Cc1cc(C(C(=O)N2C[C@H](O)CC2C2=NC(=O)C(C)(c3ccc(-c4scnc4C)cc3)N2)C(C)C)on1 (single isomer, unassigned) [Example 104.2]")
"> 150 µM"

Supply recorded Kd for Cc1cc(C(C(=O)N2C[C@H](O)CC2C2=NC(=O)C(C)(c3ccc(Br)cc3)N2)C(C)C)on1 (single isomer, unassigned) [Example 103.1] here. > 150 µM

====

Here the recorded Kd is given for each entry.
# MEASURED TARGET: VHL co-expressed with Elongins B and C (Homo sapiens (Human))
# METHOD: Surface Plasmon Resonance Assay
# Format: binding
# CONDITION NOTES: SPR measured VHL affinity; geometric mean where more than one measurement

Example entries begin here.
>>> result("CC(=O)N1CCCCC1C(=O)N1C[C@H](O)CC1C1=NC(=O)[C@](C)(c2ccc(-c3scnc3C)cc2)N1 (single isomer, unassigned) [Example 124.4]")
"≥ 150 µM"
>>> result("Cc1ncsc1-c1ccc([C@]2(C)NC(C3C[C@@H](O)CN3C(=O)C3N(S(C)(=O)=O)CCC3(C)C)=NC2=O)cc1 (single isomer, unassigned) [Example 125.2]")
"≥ 150 µM"
>>> result("CC(=O)N1CCC[C@H]1C(=O)N1C[C@H](O)CC1C1=NC(=O)[C@](C)(c2ccc(-c3scnc3C)cc2)N1 (single isomer, unassigned) [Example 121.2]")
"≥ 150 µM"
>>> result("Cc1ncsc1-c1ccc([C@]2(C)NC(C3C[C@@H](O)CN3C(=O)C3N(S(C)(=O)=O)CCC3(C)C)=NC2=O)cc1 (single isomer, unassigned) [Example 125.4]")
"≥ 150 µM"

// below: Kd requested for another compound
Quote Kd reported for Cc1cc(C(C(=O)N2C[C@H](O)CC2C2=NC(=O)C(C)(c3ccc(Br)cc3)N2)C(C)C)on1 (single isomer, unassigned) [Example 103.3] please. > 150 µM

====

# MEASURED TARGET: VHL Elongin B/C complex (Homo sapiens (Human), UniProt P40337)
# Sequence (P40337 whole entry, looked up): as the sequence (P40337 whole entry, looked up) above
# Sequence (Q15370 whole entry partner, looked up): as the sequence (Q15370 whole entry partner, looked up) above
# Sequence (Q15369 whole entry partner, looked up): as the sequence (Q15369 whole entry partner, looked up) above
# METHOD: Fluorescence Polarization (FP) VHL Binding Assay
# CONDITION NOTES: VHL binding, FP assay; geometric mean where more than one measurement
QUANTITY MEASURED: IC50

Kindly indicate its recorded IC50. Item: CC/C(=C(\c1ccc(O)cc1)c1ccc(OCCN(C)C(=O)CCCOCCOc2cc(C(C(=O)N3C[C@H](O)CC3C3=NC(=O)[C@](C)(c4ccc(-c5scnc5C)cc4)N3)C(C)C)on2)cc1)c1ccccc1 (single isomer, unassigned) [Example 1003.1] ≥ 400 µM

Tell us which IC50 value is on record for Cc1cc(C(C(=O)N2C[C@H](O)CC2C2=NC(=O)[C@](C)(c3ccc(-c4scnc4C)cc3)N2)C(C)C)sn1 (single isomer, unassigned) [Example 119.4] ≥ 400 µM

Write down IC50 measured for item Cc1cc(C(C(=O)N2C[C@H](O)CC2C2=NC(=O)C(C)(C)N2)C(C)C)on1 (single isomer, unassigned) [Example 107.4] > 50 µM

Recall and state the measured IC50 for Cc1ncsc1-c1ccc([C@]2(C)NC(C3C[C@@H](O)CN3C(=O)C(c3cn(C)nn3)C(C)C)=NC2=O)cc1 (single isomer, unassigned) [Example 118.4] . ≥ 400 µM

Supply measured IC50 of CC(=O)N[C@H](C(=O)N1C[C@H](O)CC1C1=NC(=O)C(C)(c2ccc(Br)cc2)N1)C(C)(C)C (single isomer, unassigned) [Example 101.1] in your reply. > 200 µM

Output IC50 of Cc1ncsc1-c1ccc([C@]2(C)NC(C3C[C@@H](O)CN3C(=O)C3N(S(C)(=O)=O)CCC3(C)C)=NC2=O)cc1 (single isomer, unassigned) [Example 125.3] ≥ 400 µM

Look up IC50 of Cc1cc(C(C(=O)N2C[C@H](O)CC2C2=NC(=O)C(C)(c3ccc(-c4cccc(=O)n4C)cc3)N2)C(C)C)on1 (single isomer, unassigned) [Example 108.3] and report it. > 400 µM

====

# IC50 listing for each entry below
# MEASURED TARGET: NanoLuc VHL fusion protein (Homo sapiens (Human), UniProt P40337)
# METHOD: VHL HEK-293 BRET Assay (NanoBRET Target Engagement)
# Type: cell-based
# CONDITION NOTES: geometric mean where more than one measurement

Answered cases to consult:
>>> result("Cc1cc(C(C(=O)N2C[C@H](O)CC2C2=NS(=O)(=O)CN2)C(C)C)on1 (single isomer, unassigned) [Example 137.2]")
"≥ 100 µM"
>>> result("Cc1ncsc1-c1ccc([C@]2(C)NC(C3C[C@@H](O)CN3C(=O)[C@@H](NC(=O)C3(C#N)CC3)C(C)(C)C)=NC2=O)cc1 (single isomer, unassigned) [Example 111.1]")
"≥ 100 µM"

Entry Cc1cc(C(C(=O)N2C[C@H](O)CC2C2=NS(=O)(=O)CN2)C(C)C)on1 (single isomer, unassigned) [Example 137.3] needs its IC50 filled in; supply it. ≥ 100 µM

Entry source: patent US11242344B2
